Origin of values: patent US7067520B2

melting point by entry:

>  <Compound>
CSc1nc2cc(C)nn2c(Nc2ccccc2)c1C#N [compound 189]

>  <Measured parameter>
melting point

>  <Value reported>
185 to 187 °C

$$$$
>  <Compound>
CSc1nc2ccnn2c(NCC2OCCO2)c1C#N [compound 8]

>  <Measured parameter>
melting point

>  <Value reported>
157 to 158 °C

$$$$
>  <Compound>
CSc1nc2ccnn2c(Cl)c1C#N [compound 62]

>  <Measured parameter>
melting point

>  <Value reported>
201 to 202 °C

$$$$
>  <Compound>
CSc1nc2ccnn2c(Nc2ccc(C)cc2)c1C#N [compound 164]

>  <Measured parameter>
melting point

>  <Value reported>
201 to 202 °C

$$$$
>  <Compound>
CCOC(=O)c1c(SC)nc2ccnn2c1NCc1ccncc1 [compound 221]

>  <Measured parameter>
melting point

>  <Value reported>
123 °C

$$$$

# melting point lookup, item CSc1nc2nccn2c(NCc2ccccc2)c1C#N [compound 42]
179 °C

Try the compound CCOCSc1nc2ccnn2c(NCc2ccccc2)c1C#N [compound 117]
130.5 to 133.5 °C

Entry CSc1nc2ccnn2c(NCC(=O)c2ccccc2)c1C#N [compound 18] please
212 to 213 °C

Same lookup for COc1nc2ccnn2c(NCc2ccccc2)c1C#N [compound 135] , please.
148.8 to 149.6 °C

Same again, this time with N#Cc1c(Cc2ccccc2)nc2ccnn2c1N [compound 87]
242 °C

Another compound to look at: C#CCNc1c(C#N)c(C)nc2ccnn12 [compound 22]
169 °C
